Tested System: T1, ApoE4 amino acids 24-164, expressed on yeast (human, UniProt P02649 42-182)
T1 construct: with myc tag, on yeast cells; range counts on the mature protein; also called helix1 + 2 + 3 + 4
T1 chain: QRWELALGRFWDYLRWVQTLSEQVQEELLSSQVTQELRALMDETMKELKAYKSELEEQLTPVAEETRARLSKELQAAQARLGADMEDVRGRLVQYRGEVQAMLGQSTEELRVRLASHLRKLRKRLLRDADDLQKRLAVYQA
Procedure Text: yeast display of myc-tagged ApoE4 fragment, antibody staining
Readout: binding result

The cases that follow already have their binding result on record.
HJ151 (antibody, V domains shown, murine monoclonal antibody from hybridoma; also called HJ151B (biotinylated)) VH: QVQLQQSGAELVRPGASVTLSCKASGYTFTDYEMHWVKQTPVHGLEWIGVIDPEKGGTAYNQKFKGKAILTADKSSSTAYMDLRSLTSEDSAVYYCLKDSWGQGTTLTVSS VL: DVLMTQTPLSLPVSLGDQASISCRSSQTIVHSDGNTYLEWYLQKPGQSPKLLIYKVSNRFSGVPDRFSGSGSGTYFTLKISRVEAEDLGVYYCFQGSHVPCTFGGGTKLEIKR = binds
HJ152 (antibody, V domains shown, murine monoclonal antibody from hybridoma; also called HJ152B (biotinylated)) VH: EVKLEESGGGLVQPGGSMKLSCAASGFSFSDAWMDWVRQSPEKGLEWVAEIRNKADNHATFYAESVKGRFTISRDDSKSSVYLQMNSLRAEDSGIYYCLLWDYWGQGTTLTVSS VL: DIVMSQSPSSLAVSAGEKVTMSCKSSQSLLNSRTRKHFLAWYQQKPGQSPKVLIYWASSRESGVPDRFTGSGSGTDFTLTISSVQAEDLAVYYCKQSCNLPWTFGGGTKLEIKR = binds
HJ159 (antibody, V domains shown, murine monoclonal antibody from hybridoma) VH: QVQLQQSGPDLVKPGASVKISCKASGYTFIDYYINWAKQRPGQGLEWIGWIFPGSGSTYYNEKFKGKATLTVDKSSSTAYMFLSSLTSEDSAVFFCARYYGSSPFAYWGQGTLVTVSA VL: DVLMTQTPLSLPVSLGDQASISCRSSQNIVYSNGNTYLEWYLQKPGQSPKLLIYKVSNRFSGVPDRFSGSGSGTYFTLKISRVEAEDLGIYYCFQGSHVPYTFGGGTKLEIKR = binds
HJ154 (antibody, V domains shown, murine monoclonal antibody from hybridoma; also called HJ154B (biotinylated)) VH: QVQLQQPGTEFVMSGASVMLSCKASGYIFTNYWLHWVKQRPGHGLEWIGEIDPSDSYSICNDNFKGKSTLTVDKSSSTAYMQLSSLTSEDSAVYYCAGSLGRVGLAYWGQGTLVTVST VL: QIVLTQSPAIMSASPGEKVTMSCSASSSVSNMYWYQQKPGSSPKSWIYRTSNLASGVPARFSGSGSGTSYSLTISNMEAEDAATYYCQHYQNYPLTFGAGTKLELKR = binds

In plain terms, HJ155 (antibody, V domains shown, murine monoclonal antibody from hybridoma; also called HJ155B (biotinylated)) VH: RVQLQQSGPGLVKPGASVKISCKASGYTFTDYYINWVRQRPGQGLEWIGWIFPGSGITYYNEKFKGKATLTVDRSSSTAYMLLSSLTSEDSAVYFCARYAYGSPFAYWGQGTLVTVSA VL: DVLMTQTPLSLPVSLGDQASISCRSSQSIVHSNGNTYLEWYLQKPGQSPKLLIYKVSNRFSGVPDRFSGSGSGTDFTLKISRVEAEDLGVYYCFQGSHVPYTFGGGTKLEIKR has a documented binding result of binds
